Target: Polyunsaturated fatty acid 5-lipoxygenase (Homo sapiens, UniProt P09917)
Experiment: Inhibition of human neutrophil 5-lipoxygenase
pIC50: −log10 of the molar value.
outcome.measure: pIC50

compound: CC(C)(C)c1cc(C(=O)c2cccs2)cc(C(C)(C)C)c1O [PRIFELONE]
inequality.symbol: =
result.number: 5.32
//
compound: CCc1cc(/C=C/c2ccc(OC)cc2)cc(CC)c1O
inequality.symbol: >
result.number: 6.00
//
compound: COc1ccccc1/C=C/c1cc(C)c(O)c(C)c1
inequality.symbol: =
result.number: 7.00
//
compound: COc1cc(/C=C/c2cccs2)cc(C)c1O
inequality.symbol: =
result.number: 7.07
//
compound: CCc1cc(/C=C/c2cccnc2)cc(CC)c1O
inequality.symbol: >
result.number: 6.00

###

Target: Cyclooxygenase (Homo sapiens, UniProt P35354+P23219)
Assay: Inhibition of human platelet Prostaglandin G/H synthase at the concentration of 1 uM
outcome.measure: inhibition

smiles.representation: Cc1cc(/C=C/c2ccsc2)cc(C)c1O
result: 38%
--
smiles.representation: CCc1cc(/C=C/c2ccc(OC)cc2)cc(CC)c1O
result: 33%
--
smiles.representation: COc1cc(/C=C/c2cccs2)cc(F)c1O
result: 42%
--
smiles.representation: COc1cc(/C=C/c2cccs2)cc(OC)c1O
result: 1%

###

Biological target: Polyunsaturated fatty acid 5-lipoxygenase (Homo sapiens)
Sequence (whole entry): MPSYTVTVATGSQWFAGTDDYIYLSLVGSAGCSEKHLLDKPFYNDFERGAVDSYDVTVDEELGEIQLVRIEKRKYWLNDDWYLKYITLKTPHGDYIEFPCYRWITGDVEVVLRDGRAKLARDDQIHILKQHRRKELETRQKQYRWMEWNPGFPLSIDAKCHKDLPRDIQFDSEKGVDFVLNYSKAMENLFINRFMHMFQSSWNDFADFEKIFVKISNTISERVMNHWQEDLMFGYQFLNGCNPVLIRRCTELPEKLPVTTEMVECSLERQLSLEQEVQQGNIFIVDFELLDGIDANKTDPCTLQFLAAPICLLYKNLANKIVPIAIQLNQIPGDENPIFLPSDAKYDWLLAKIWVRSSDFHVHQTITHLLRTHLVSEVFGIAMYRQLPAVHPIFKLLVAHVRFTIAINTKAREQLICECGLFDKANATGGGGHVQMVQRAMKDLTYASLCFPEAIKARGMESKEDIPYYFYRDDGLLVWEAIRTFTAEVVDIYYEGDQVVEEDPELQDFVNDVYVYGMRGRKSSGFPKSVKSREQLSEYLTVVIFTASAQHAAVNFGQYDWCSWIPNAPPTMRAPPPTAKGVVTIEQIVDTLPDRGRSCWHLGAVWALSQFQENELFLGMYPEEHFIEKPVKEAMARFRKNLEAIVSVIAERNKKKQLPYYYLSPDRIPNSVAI
Assay: Inhibition of human neutrophil 5-lipoxygenase at the concentration of 0.1 uM

smiles.representation: Cc1cc(/C=C/c2cccs2)cc(F)c1O
inhibition [%]: 18
//
smiles.representation: CCc1cc(/C=C/c2cccnc2)cc(CC)c1O
inhibition [%]: 36
//
smiles.representation: COc1ccc(/C=C/c2cc(C(C)C)c(O)c(C(C)C)c2)cc1
inhibition [%]: 13
//
smiles.representation: Cc1cc(/C=C/c2ccccc2OCc2ccccc2)cc(C)c1O
inhibition [%]: 18
//
smiles.representation: CCc1cc(/C=C/c2ccc(OC)cc2)cc(CC)c1O
inhibition [%]: 15
//
smiles.representation: Cc1cc(/C=C/c2cccs2)cc(Cl)c1O
inhibition [%]: 29
//
smiles.representation: Cc1cc(/C=C/c2ccc(Cl)s2)cc(C)c1O
inhibition [%]: 32
//
smiles.representation: COc1cc(/C=C/c2cccs2)cc(F)c1O
inhibition [%]: 31
//
smiles.representation: CCc1cc(/C=C/c2cccs2)cc(CC)c1O
inhibition [%]: 52
//
smiles.representation: Cc1cc(CCc2cccs2)cc(C)c1O
inhibition [%]: 11
//
smiles.representation: COc1cc(/C=C/c2cccs2)cc(OC)c1O
inhibition [%]: 52
//
smiles.representation: Cc1ccc(/C=C/c2cc(C)c(O)c(C)c2)s1
inhibition [%]: 26
//
smiles.representation: CCCOc1ccc(/C=C/c2cc(C)c(O)c(C)c2)cc1
inhibition [%]: 27
//
smiles.representation: Cc1cc(/C=C/c2ccccn2)cc(C)c1O
inhibition [%]: 29
//
smiles.representation: CCCCOc1ccc(/C=C/c2cc(C)c(O)c(C)c2)cc1
inhibition [%]: 7
//
smiles.representation: CC(C)c1cc(/C=C/c2cccs2)cc(C(C)C)c1O
inhibition [%]: 14

###

inhibition: recorded values
Assay: Inhibition of human platelet Prostaglandin G/H synthase at the concentration of 10 uM

smiles.representation: Cc1cc(/C=C/c2cccs2)cc(F)c1O
inhibition: 95%
//
smiles.representation: Cc1cc(/C=C/c2ccccc2C(=O)O)cc(C)c1O
inhibition: 25%
//
smiles.representation: Cc1cc(C(=O)/C=C/c2cccs2)cc(C)c1O
inhibition: 82%
//
smiles.representation: CCCCOc1ccc(/C=C/c2cc(C)c(O)c(C)c2)cc1
inhibition: 67%

###

Known inhibition of a selection of compounds
Molecular target: Polyunsaturated fatty acid 5-lipoxygenase (Homo sapiens) (UniProt P09917)
Experiment: Inhibition of human neutrophil 5-lipoxygenase at the concentration of 1 uM
outcome.measure: inhibition

smiles.representation: COc1cc(/C=C/c2cccs2)cc(OC)c1O
target.system: Polyunsaturated fatty acid 5-lipoxygenase (Homo sapiens) (UniProt P09917)
result: 93%

smiles.representation: Cc1cc(/C=C/c2ccccc2OCc2ccccc2)cc(C)c1O
target.system: Polyunsaturated fatty acid 5-lipoxygenase (Homo sapiens) (UniProt P09917)
result: 95%

smiles.representation: Cc1cc(CCc2cccs2)cc(C)c1O
target.system: Polyunsaturated fatty acid 5-lipoxygenase (Homo sapiens) (UniProt P09917)
result: 67%

smiles.representation: COc1ccc(/C=C/c2cc(C(C)C)c(O)c(C(C)C)c2)cc1
target.system: Polyunsaturated fatty acid 5-lipoxygenase (Homo sapiens) (UniProt P09917)
result: 71%

smiles.representation: COc1ccc(/C=C/c2cc(C(C)(C)C)c(O)c(C(C)(C)C)c2)cc1
target.system: Polyunsaturated fatty acid 5-lipoxygenase (Homo sapiens) (UniProt P09917)
result: 0%

smiles.representation: Cc1cc(C(=O)c2cccs2)cc(C)c1O
target.system: Polyunsaturated fatty acid 5-lipoxygenase (Homo sapiens) (UniProt P09917)
result: 1%

smiles.representation: Cc1cc(Cc2cccnc2)cc(C)c1O
target.system: Polyunsaturated fatty acid 5-lipoxygenase (Homo sapiens) (UniProt P09917)
result: 5%

smiles.representation: CCCOc1ccc(/C=C/c2cc(C)c(O)c(C)c2)cc1
target.system: Polyunsaturated fatty acid 5-lipoxygenase (Homo sapiens) (UniProt P09917)
result: 90%

smiles.representation: CCCCOc1ccc(/C=C/c2cc(C)c(O)c(C)c2)cc1
target.system: Polyunsaturated fatty acid 5-lipoxygenase (Homo sapiens) (UniProt P09917)
result: 53%

smiles.representation: Cc1cc(/C=C/c2cccs2)cc(F)c1O
target.system: Polyunsaturated fatty acid 5-lipoxygenase (Homo sapiens) (UniProt P09917)
result: 90%

smiles.representation: CCc1cc(/C=C/c2cccnc2)cc(CC)c1O
target.system: Polyunsaturated fatty acid 5-lipoxygenase (Homo sapiens) (UniProt P09917)
result: 86%

smiles.representation: Cc1cc(/C=C/c2ccc(Cl)s2)cc(C)c1O
target.system: Polyunsaturated fatty acid 5-lipoxygenase (Homo sapiens) (UniProt P09917)
result: 92%

smiles.representation: Cc1cc(/C=C/c2cccs2)cc(Cl)c1O
target.system: Polyunsaturated fatty acid 5-lipoxygenase (Homo sapiens) (UniProt P09917)
result: 93%

smiles.representation: COc1cc(/C=C/c2cccs2)cc(F)c1O
target.system: Polyunsaturated fatty acid 5-lipoxygenase (Homo sapiens) (UniProt P09917)
result: 89%

smiles.representation: CCc1cc(/C=C/c2cccs2)cc(CC)c1O
target.system: Polyunsaturated fatty acid 5-lipoxygenase (Homo sapiens) (UniProt P09917)
result: 89%

smiles.representation: CCc1cc(/C=C/c2ccc(OC)cc2)cc(CC)c1O
target.system: Polyunsaturated fatty acid 5-lipoxygenase (Homo sapiens) (UniProt P09917)
result: 90%

smiles.representation: CC(C)c1cc(/C=C/c2cccs2)cc(C(C)C)c1O
target.system: Polyunsaturated fatty acid 5-lipoxygenase (Homo sapiens) (UniProt P09917)
result: 94%

smiles.representation: Cc1ccc(/C=C/c2cc(C)c(O)c(C)c2)s1
target.system: Polyunsaturated fatty acid 5-lipoxygenase (Homo sapiens) (UniProt P09917)
result: 87%

smiles.representation: Cc1cc(/C=C/c2ccccn2)cc(C)c1O
target.system: Polyunsaturated fatty acid 5-lipoxygenase (Homo sapiens) (UniProt P09917)
result: 82%

smiles.representation: Cc1cc(CCC(=O)c2ccc(F)cc2)cc(C)c1O
target.system: Polyunsaturated fatty acid 5-lipoxygenase (Homo sapiens) (UniProt P09917)
result: 44%

###

Target: Cyclooxygenase (Homo sapiens, UniProt P35354+P23219)
Assay: Inhibition of human platelet Prostaglandin G/H synthase at the concentration of 1 uM

smiles.representation: Cc1cc(Cc2cccnc2)cc(C)c1O
inhibition [%]: 0
--
smiles.representation: Cc1cc(/C=C/C(=O)c2ccc(F)cc2)cc(C)c1O
inhibition [%]: 43
--
smiles.representation: Cc1cc(/C=C2\CCOC2=O)cc(C)c1O
inhibition [%]: 0
--
smiles.representation: Cc1cc(/C=C/c2ccccc2OCc2ccccc2)cc(C)c1O
inhibition [%]: 45
--
smiles.representation: Cc1cc(/C=C/C(=O)c2cccs2)cc(C)c1O
inhibition [%]: 37
--
smiles.representation: Cc1cc(/C=C/c2cc(F)cc(F)c2)cc(C)c1O
inhibition [%]: 50
--
smiles.representation: Cc1cc(/C=C/c2cccs2)cc(F)c1O
inhibition [%]: 72
--
smiles.representation: Cc1cc(/C=C/c2ccccc2Br)cc(C)c1O
inhibition [%]: 84
--
smiles.representation: Cc1cc(/C=C/c2cccc(C(=O)O)c2)cc(C)c1O
inhibition [%]: 0
--
smiles.representation: CCc1cc(/C=C/c2cccs2)cc(CC)c1O
inhibition [%]: 39
--
smiles.representation: CCCC/C(=C\c1cc(C)c(O)c(C)c1)c1ccc(F)cc1
inhibition [%]: 52
--
smiles.representation: CCc1cc(/C=C/c2ccc(C)cc2)cc(CC)c1O
inhibition [%]: 35
--
smiles.representation: Cc1cc(/C=C/c2ccccc2C(F)(F)F)cc(C)c1O
inhibition [%]: 76
